# Tested on: A375 cells
# assay.info: Tumor cell line proliferation assay (CellTiter Glo), A375
# Type: cell-based
# experimental.parameters: Homo sapiens, A-375, 96 h, read-out: A375 (V599E) Cell Proliferation IC50
pIC50: −log10 of the molar value.
Exercise: state measured pIC50 for each of the compounds provided.

Here is how some compounds turned out for pIC50.
| compound | measured.target | measured.quantity | reported |
| --- | --- | --- | --- |
| Cc1cc(-c2n[nH]c3cc4c(cc23)CN([C@@H]2CCCN(Cc3cc(F)cc(F)c3)C2)C(=O)N4)ccn1 | A375 cells | pIC50 | 6.00 to 6.60 |
| Cc1cc(-c2n[nH]c3cc4c(cc23)CN([C@@H]2CCCN(c3cccc(Cl)c3)C2)C(=O)N4)ccn1 | A375 cells | pIC50 | 6.00 to 6.60 |
| COc1cccc(F)c1CN1CCC[C@@H](N2Cc3cc4c(-c5ccnc(C)c5)n[nH]c4cc3NC2=O)C1 | A375 cells | pIC50 | ≥ 6.60 |
| Cc1cc(-c2n[nH]c3cc4c(cc23)CN(C2CCCC2)C(=O)N4)ccn1 | A375 cells | pIC50 | 6.00 to 6.60 |
| Cc1cc(-c2n[nH]c3cc4c(cc23)CN([C@@H]2CN(C)C[C@H]2c2ccccc2)C(=O)N4)ccn1 (racemic) | A375 cells | pIC50 | ≥ 6.60 |

Would you be so kind as to report pIC50 for each listed record?
1. Cc1cc(-c2n[nH]c3cc4c(cc23)CN([C@@H]2CCCN(Cc3ccc(C)s3)C2)C(=O)N4)ccn1
2. Cc1cc(-c2n[nH]c3cc4c(cc23)CN(C2CCC2)C(=O)N4)ccn1

RESULT:
≥ 6.60
≥ 6.60

---

# Test system: A375 cells
# assay.info: Tumor cell line proliferation assay (CellTiter Glo), A375
# Format: cell-based
# experimental.parameters: Homo sapiens, A-375, 96 h, read-out: A375 (V599E) Cell Proliferation IC50
pIC50: −log10 of the molar value.
Exercise: state measured pIC50 for each of the compounds provided.

| compound | pIC50 |
| --- | --- |
| Cc1cc(-c2n[nH]c3cc4c(cc23)CN([C@@H]2CCCN(CCC(F)(F)F)C2)C(=O)N4)ccn1 | 6.00 to 6.60 |
| Cc1cc(-c2n[nH]c3cc4[nH]c(=O)c(C(C)c5ccccc5)cc4cc23)ccn1 (centres unmarked) | ≥ 6.60 |
| Cc1cc(-c2n[nH]c3cc4c(cc23)CN(Cc2ccccc2)C(=O)N4)cc(C)n1 | 6.00 to 6.60 |
| Cc1cc(-c2n[nH]c3cc4c(cc23)CN([C@@H]2CCCN(CC3CCCC3)C2)C(=O)N4)ccn1 | 6.00 to 6.60 |
| Cc1cc(-c2n[nH]c3cc4c(cc23)CN(C2CN(CC3CCCC3)CC(F)(F)C2)C(=O)N4)ccn1 (centres unmarked) | < 6.00 |
| COc1ncc(-c2n[nH]c3cc4c(cc23)CN([C@@H]2CCCN(Cc3ccc(F)cc3F)C2)C(=O)N4)cn1 | ≥ 6.60 |

Would you be so kind as to report pIC50 for each listed record?
1. Cc1cc(-c2n[nH]c3cc4c(cc23)CC(C(C)c2cccc(Cl)c2)C(=O)N4)ccn1 (centres unmarked)
2. O=C1Nc2cc3[nH]nc(-c4ccc(N5CCOCC5)nc4)c3cc2CN1Cc1cccc(Cl)c1

RESULT:
1: ≥ 6.60; 2: 6.00 to 6.60

---

# Test system: phospho-p90 RSK (RSK1 Thr359/Ser363) in A375 (Braf V600E) cells
# assay.info: Phospho-p90 RSK ELISA using A375 (Braf V600E) cells
# Format: cell-based
# experimental.parameters: Homo sapiens, A-375, 2 hours compound treatment, read-out: Cellular Phospho-p90RSK IC50
measured.quantity: IC50

| input.smiles | IC50 |
| --- | --- |
| Cc1cc(-c2n[nH]c3cc4c(cc23)CN(CCN)C(=O)N4)ccn1 | > 1000 nM |
| COc1cc(-c2n[nH]c3cc4c(cc23)CN([C@@H]2CCCN(Cc3ccc(F)cc3F)C2)C(=O)N4)ccn1 | ≤ 250 nM |
| Cc1cc(-c2n[nH]c3cc4c(cc23)CN([C@@H]2CCCN(C(=O)c3ccccc3)C2)C(=O)N4)ccn1 | 250 to 1000 nM |

Would you be so kind as to report IC50 for each listed record?
1. C[C@H](c1ccccc1)c1cc2cc3c(NC4CCOCC4)n[nH]c3cc2[nH]c1=O
2. Cc1cc(-c2n[nH]c3cc4c(cc23)CN(Cc2ccccc2Cl)C(=O)N4)ccn1
3. Cc1cc(-c2n[nH]c3cc4c(cc23)CN(C2CCOCC2)C(=O)N4)ccn1
4. Cc1cc(-c2n[nH]c3cc4c(cc23)CN([C@@H]2CN(CC(F)(F)F)C[C@H]2c2ccccc2)C(=O)N4)ccn1
5. [2H]C([2H])(c1ccccc1)N1CCC[C@@H](N2Cc3cc4c(-c5ccnc(C)c5)n[nH]c4cc3NC2=O)C1
6. Cc1cc(-c2n[nH]c3cc4c(cc23)CN([C@@H]2CCCN(C3CCCC3)C2)C(=O)N4)ccn1
7. COc1ncc(-c2n[nH]c3cc4c(cc23)CN(Cc2ccc(F)cc2F)C(=O)N4)cn1

RESULT:
["≤ 250 nM", "≤ 250 nM", "250 to 1000 nM", "≤ 250 nM", "≤ 250 nM", "250 to 1000 nM", "≤ 250 nM"]

Would you be so kind as to report IC50 for each listed record?
1. Cc1cc(-c2n[nH]c3cc4c(cc23)CN(Cc2ccccc2)C(=O)N4)cc(C)n1
2. Cc1cc(-c2n[nH]c3cc4c(cc23)CN([C@@H]2CCCN(Cc3ccccn3)C2)C(=O)N4)ccn1
3. Cn1cc(-c2n[nH]c3cc4c(cc23)CN([C@@H]2CCCN(Cc3cccs3)C2)C(=O)N4)cn1

RESULT:
["≤ 250 nM", "> 1000 nM", "≤ 250 nM"]

---

# Tested on: phospho-p90 RSK (RSK1 Thr359/Ser363) in A375 (Braf V600E) cells
# assay.info: Phospho-p90 RSK ELISA using A375 (Braf V600E) cells
# Format: cell-based
# experimental.parameters: Homo sapiens, A-375, 2 hours compound treatment, read-out: Cellular Phospho-p90RSK IC50
Exercise: state measured IC50 for each of the molecules provided.

Here is how some molecules turned out for IC50.
| molecule | measured.quantity | reported |
| --- | --- | --- |
| Cc1cc(-c2n[nH]c3cc4c(cc23)CN(C2CCC(=O)N(Cc3ccccc3)C2)C(=O)N4)ccn1 (stereo not shown) [Example 232] | IC50 | 0.25 to 1 µM |
| Cc1cc(-c2n[nH]c3cc4c(cc23)CN(C(C)CC(C)C)C(=O)N4)ccn1 (stereo not shown) [Example 53] | IC50 | 0.25 to 1 µM |

Would you be so kind as to report IC50 for each listed record?
1. CC(c1ccccc1)c1cc2cc3c(N4CCN(C)CC4)n[nH]c3cc2[nH]c1=O (stereo not shown) [Example 358]
2. Nc1ncc(-c2n[nH]c3cc4c(cc23)CN([C@@H]2CN(CC(F)(F)F)C[C@H]2c2ccccc2)C(=O)N4)cn1 [Example 351]
3. Cc1cc(-c2n[nH]c3cc4c(cc23)CN([C@@H]2CCN(C(C)C)C2)C(=O)N4)ccn1 [Example 268]

RESULT:
1: > 1 µM; 2: 0.25 to 1 µM; 3: > 1 µM

Would you be so kind as to report IC50 for each listed record?
1. COc1ccc(-c2n[nH]c3cc4c(cc23)CN(Cc2ccc(F)cc2)C(=O)N4)cn1 [Example 76]
2. Cc1cc(-c2n[nH]c3cc4c(cc23)CN([C@@H]2CCCN(Cc3cccc(F)c3F)C2)C(=O)N4)ccn1 [Example 185]

RESULT:
≤ 0.25 µM
≤ 0.25 µM

---

Exercise: state measured pIC50 for each of the compounds provided.
# Test system: phospho-p90 RSK (RSK1 Thr359/Ser363) in A375 (Braf V600E) cells
# assay.info: Phospho-p90 RSK ELISA using A375 (Braf V600E) cells
# Type: cell-based
# experimental.parameters: Homo sapiens, A-375, 2 hours compound treatment, read-out: Cellular Phospho-p90RSK IC50
pIC50: −log10 of the molar value.

Here is how some compounds turned out for pIC50.
| compound | measured.target | reported |
| --- | --- | --- |
| Cc1cc(-c2n[nH]c3cc4c(cc23)CN([C@@H]2CCCN(CC(F)(F)F)C2)C(=O)N4)ccn1 | phospho-p90 RSK (RSK1 Thr359/Ser363) in A375 (Braf V600E) cells | ≥ 6.60 |
| Cc1cc(-c2n[nH]c3cc4c(cc23)CN([C@@H]2CCN(CC3CCCC3)C2)C(=O)N4)ccn1 | phospho-p90 RSK (RSK1 Thr359/Ser363) in A375 (Braf V600E) cells | < 6.00 |
| Cc1cc(-c2n[nH]c3cc4c(cc23)CN([C@@H]2CCCN(Cc3cc(F)cc(F)c3)C2)C(=O)N4)ccn1 | phospho-p90 RSK (RSK1 Thr359/Ser363) in A375 (Braf V600E) cells | ≥ 6.60 |

Would you be so kind as to report pIC50 for each listed record?
1. Cc1cc(-c2n[nH]c3cc4c(cc23)CN([C@@H]2CCN(C(C)C(F)(F)F)C2)C(=O)N4)ccn1 (some centres unmarked)
2. Cn1cc(-c2n[nH]c3cc4c(cc23)CN(Cc2ccc(F)c(Cl)c2)C(=O)N4)ccc1=O
3. Cc1cc(-c2n[nH]c3cc4c(cc23)CN(CC2CC2)C(=O)N4)ccn1
4. Cc1cc(-c2n[nH]c3cc4c(cc23)CN([C@@H]2CCCN(Cc3c(F)cccc3F)C2)C(=O)N4)ccn1

RESULT:
≥ 6.60
≥ 6.60
≥ 6.60
≥ 6.60

Would you be so kind as to report pIC50 for each listed record?
1. Cc1cc(-c2n[nH]c3cc4c(cc23)CN(C2CN(CC3CCCC3)CC(F)(F)C2)C(=O)N4)ccn1 (centres unmarked)
2. Cc1cc(-c2n[nH]c3cc4c(cc23)CN(Cc2cccc(Cl)c2)C(=O)N4)ccn1
3. Cc1cc(-c2n[nH]c3cc4c(cc23)CN([C@@H]2CCCN(C(C)c3cccc(Cl)c3)C2)C(=O)N4)ccn1 (some centres unmarked)
4. Cc1cc(-c2n[nH]c3cc4[nH]c(=O)n(Cc5ccc(F)c(Cl)c5)c(=O)c4cc23)ccn1
5. Cc1cc(-c2n[nH]c3cc4c(cc23)CN([C@@H]2CCC[C@H](NCc3ccccc3)C2)C(=O)N4)ccn1

RESULT:
1: < 6.00; 2: ≥ 6.60; 3: ≥ 6.60; 4: 6.00 to 6.60; 5: 6.00 to 6.60

Would you be so kind as to report pIC50 for each listed record?
1. O=C1Nc2cc3[nH]nc(-c4ccnnc4)c3cc2CN1[C@@H]1CCCN(Cc2ccccc2F)C1
2. Cc1cc(-c2n[nH]c3cc4c(cc23)CN([C@@H]2CN(Cc3ccccc3)CC(F)(F)C2)C(=O)N4)ccn1
3. Cc1cc(-c2n[nH]c3cc4c(cc23)CN(Cc2ccc(C#N)cc2)C(=O)N4)ccn1
4. Cc1cc(-c2n[nH]c3cc4c(cc23)CN([C@@H]2CCCN(Cc3sc(C)nc3C)C2)C(=O)N4)ccn1
5. Cc1cc(-c2n[nH]c3cc4c(cc23)CN([C@@H]2CCCN(CC(=O)C(C)C)C2)C(=O)N4)ccn1

RESULT:
1: ≥ 6.60; 2: < 6.00; 3: 6.00 to 6.60; 4: 6.00 to 6.60; 5: 6.00 to 6.60

Would you be so kind as to report pIC50 for each listed record?
1. Cc1cc(-c2n[nH]c3cc4c(cc23)CN([C@@H]2CCCN(Cc3cc(C5CC5)on3)C2)C(=O)N4)ccn1
2. O=C1Nc2cc3[nH]nc(-c4ccncc4)c3cc2CN1Cc1ccccc1
3. Cc1cc(-c2n[nH]c3cc4[nH]c(=O)c([C@H](C)c5ccccc5)cc4cc23)ccn1
4. COc1ncc(-c2n[nH]c3cc4c(cc23)CN([C@@H]2CN(CC(F)(F)F)C[C@H]2c2ccccc2)C(=O)N4)cn1

RESULT:
1. ≥ 6.60
2. ≥ 6.60
3. ≥ 6.60
4. ≥ 6.60

Would you be so kind as to report pIC50 for each listed record?
1. O=C1Nc2cc3[nH]nc(-c4ccncc4)c3cc2CN1Cc1cccc(Cl)c1
2. Cc1cc(-c2n[nH]c3cc4c(cc23)CN(CCN2CCOCC2)C(=O)N4)ccn1

RESULT:
1. ≥ 6.60
2. < 6.00
